Measured phosphorylation enrichment, listed per entry.
# Test system: c-Src;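 further: 11-residue human phosphosite peptides and single-mutation variants displayed on the E. coli surface, counted by deep sequencing, each peptide's frequency after selection divided by its frequency in the unselected input library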;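 further: frequency after pTyr selection over input frequency; kinase dosed for 20-30% of maximal phosphorylation in three min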
# Measurement notes: phosphorylation enrichment, bacterial display (enrichment ratio); higher = better substrate or ligand; peptides without Tyr show the background
Reply with just the number.

For record THPFLYLTLEI [MLH1_Y293_S295T] the listed phosphorylation enrichment is 0.548

For record HILQLYRCREE [ALPK3_Y342_T338I] the listed phosphorylation enrichment is 0.577

For record PQQLWYTHEKK [UBTF_Y207] the listed phosphorylation enrichment is 0.473

For record GIADDYDKKKP [EIF1_Y54_L59P] the listed phosphorylation enrichment is 0.436

For record NLSVPYDSSLK [ABCC8_Y1353_R1352P] the listed phosphorylation enrichment is 0.508

Others:
For record NDFGNYSNQSS [HNRNPA1_Y318_N319S] the listed phosphorylation enrichment is 0.463

For record SRWKLYPRMLR [HAO1_Y50] the listed phosphorylation enrichment is 0.442

For record YSNVLYRPRGP [TMIGD2_Y197_A202P] the listed phosphorylation enrichment is 0.421

For record MASISYDFCRV [BST2_Y6_T4I_YF] the listed phosphorylation enrichment is 0.497
